experiment_notes: physchem
condition_context: LogPA
chromatographic logP: recorded values
The answer should be written as a number, with no unit following it.

Prompt line: chromatographic logP for CC(C)Cn1cc(-c2ccnc(S(C)(=O)=O)n2)c(-c2ccc(F)cc2)n1 [Compound 287] ?
Response line: 2.9

Prompt line: chromatographic logP for CC(C)C(=O)Nc1cc(-c2cn(C(C)CC#N)nc2-c2ccc(F)cc2)ccn1 (stereo not shown) [Compound 314] ?
Response line: 1.29

Prompt line: chromatographic logP for CC(C)On1cc(-c2ccnc(NC(=O)C(C)C)c2)c(-c2ccc(F)cc2)n1 [Compound 272] ?
Response line: 3.01

Others:
Prompt line: chromatographic logP for CC(C)C(=O)Nc1cc(-c2cn(CC(F)F)nc2-c2ccc(F)cc2)ccn1 [Compound 218] ?
Response line: 2.29

====

experiment_notes: physchem
condition_context: LogPA
reported_metric: chromatographic logP
The answer should be written as a number, with no unit following it.

Sample records with chromatographic logP:
Prompt line: chromatographic logP for COCCOCC(=O)Nc1cc(-c2cn(C(C)C)nc2-c2ccc(F)cc2)ccn1 [Compound 208] ?
Response line: 2.62

Prompt line: chromatographic logP for CC(C)C(=O)Nc1cc(-c2cn(CC3CC3(Cl)Cl)nc2-c2ccc(F)cc2)ccn1 (centres unmarked) [Compound 254] ?
Response line: 3.17

Prompt line: chromatographic logP for COCC(=O)Nc1cc(-c2cn(CC3CC3)nc2-c2ccc(F)cc2)ccn1 [Compound 223] ?
Response line: 2.61

Others:
Prompt line: chromatographic logP for CC(C)n1cc(-c2ccnc(NC(=O)c3ccccc3)c2)c(-c2ccc(F)cc2)n1 [Compound 205] ?
Response line: 3.2

Prompt line: chromatographic logP for O=C(Nc1cc(-c2cn(CC3CC3)nc2-c2ccc(F)cc2)ccn1)C1CC1 [Compound 224] ?
Response line: 2.29

Prompt line: chromatographic logP for Fc1ccc(-c2nn(CC3OCCO3)cc2-c2ccncc2)cc1 [Compound 275] ?
Response line: 1.02

Prompt line: chromatographic logP for CCNC(=O)Nc1cc(-c2cn(C(C)C)nc2-c2ccc(F)cc2)ccn1 [Compound 211] ?
Response line: 2.02

Prompt line: chromatographic logP for COCC(C)Nc1nccc(-c2cn(CC(C)C)nc2-c2ccc(F)cc2)n1 (centres unmarked) [Compound 285] ?
Response line: 2.39

====

pest or weed control at 500 ppm: recorded values
System: Alternaria solani
experiment_notes: Example M: in vivo test on Alternaria solani (leaf blotch disease/tomato/protective)
condition_context: 168 h, tomato, protective, 500 ppm active substance, assessed 7 days after inoculation, read-out: % Wirkungsgrad (activity level)
Method: Solvent: 49 parts by weight N,N-dimethylformamide Emulsifier: 1 part by weight alkylaryl polyglycol ethers For the preparation of a suitable active substance preparation, 1 part by weight of active substance is mixed with the stated quantities of solvent and emulsifier and the concentrate is diluted to the desired concentration with water. For the testing for protective activity, young tomato plants are sprayed with the active substance preparation at the stated application dosage. […]
Give the number; % is assumed, so skip it.

Sample records with pest or weed control at 500 ppm:
Prompt line: pest or weed control at 500 ppm for `CC(C)Cn1cc(-c2ccnc(NC(=O)C3CC3)c2)c(-c2ccc(F)cc2)n1` ?
Response line: 95

Prompt line: pest or weed control at 500 ppm for `CC(C)C(=O)Nc1cc(-c2cn(CCCl)nc2-c2ccc(F)cc2)ccn1` ?
Response line: 90

Prompt line: pest or weed control at 500 ppm for COCC(=O)Nc1cc(-c2cn(CC3CC3(Cl)Cl)nc2-c2ccc(F)cc2)ccn1 (stereo not drawn) ?
Response line: 94

Prompt line: pest or weed control at 500 ppm for `CC(C)Nc1nccc(-c2cn(C(C)C)nc2-c2ccc(F)cc2)n1` ?
Response line: 95

Others:
Prompt line: pest or weed control at 500 ppm for `CCC(=O)Nc1nccc(-c2cn(CC(C)C)nc2-c2ccc(F)cc2)n1` ?
Response line: 80

Prompt line: pest or weed control at 500 ppm for CCC(C)Nc1nccc(-c2cn(CC(C)C)nc2-c2ccc(F)cc2)n1 (stereo not drawn) ?
Response line: 90
